# Lookup of reported log10 Ki keyed by entry
TEST METHOD NOTES: Inhibition of Clostridium histolyticum collagenase using a linear regression program
Scale: log10; quantity: Ki; unit before log: µM

Below, each entry is followed by its recorded log10 Ki result.
So what does the record say about log10 Ki for CC(C(=O)NO)N(Cc1ccc([N+](=O)[O-])cc1)S(=O)(=O)C(F)(F)C(F)(F)C(F)(F)C(F)(F)C(F)(F)C(F)(F)C(F)(F)C(F)(F)F (configuration not stated) ?
0.85

So what does the record say about log10 Ki for CC(C(=O)NO)N(Cc1ccc([N+](=O)[O-])cc1)S(=O)(=O)c1ccc(Cl)cc1 (configuration not stated) ?
1.51

So what does the record say about log10 Ki for CC(C(=O)NO)N(Cc1ccc([N+](=O)[O-])cc1)S(=O)(=O)c1ccccc1 (configuration not stated) ?
1.73

So what does the record say about log10 Ki for CC(=O)c1ccc(S(=O)(=O)N(Cc2ccc([N+](=O)[O-])cc2)C(C)C(=O)O)cc1 (configuration not stated) ?
0.32

So what does the record say about log10 Ki for CC(C(=O)O)N(Cc1ccc([N+](=O)[O-])cc1)S(=O)(=O)Cc1ccccc1 (configuration not stated) ?
1.18

More entries:
So what does the record say about log10 Ki for CC(C(=O)O)N(Cc1ccc([N+](=O)[O-])cc1)C(=S)NC(=O)c1ccccc1 (configuration not stated) ?
-0.05

So what does the record say about log10 Ki for CC(C(=O)O)N(Cc1ccc([N+](=O)[O-])cc1)S(=O)(=O)c1cccc(C(F)(F)F)c1 (configuration not stated) ?
-0.52

So what does the record say about log10 Ki for CC(C(=O)O)N(Cc1ccc([N+](=O)[O-])cc1)C(=O)Nc1cccc2ccccc12 (configuration not stated) ?
0.66

So what does the record say about log10 Ki for CC(C(=O)O)N(Cc1ccc([N+](=O)[O-])cc1)Sc1ccccc1[N+](=O)[O-] (configuration not stated) ?
0.80

So what does the record say about log10 Ki for CC(C(=O)NO)N(Cc1ccc([N+](=O)[O-])cc1)S(=O)(=O)c1ccc(NC(=O)OC(C)(C)C)cc1 (configuration not stated) ?
1.00

###

# Lookup of reported pKi keyed by entry
TEST METHOD NOTES: Inhibition of Clostridium histolyticum collagenase using a linear regression program
Quick note: pKi values are minus log10 of concentrations in mol/L.

So what does the record say about pKi for CC(C(=O)O)N(Cc1ccc([N+](=O)[O-])cc1)Sc1ccc([N+](=O)[O-])cc1[N+](=O)[O-] (centres undefined) ?
5.29

So what does the record say about pKi for CC(C(=O)NO)N(Cc1ccc([N+](=O)[O-])cc1)C(=O)Nc1ccc(F)cc1 (centres undefined) ?
4.92

So what does the record say about pKi for CC(C(=O)NO)N(Cc1ccc([N+](=O)[O-])cc1)S(=O)(=O)c1c(F)c(F)c(F)c(F)c1F (centres undefined) ?
5.30

// switching to the query compound
So what does the record say about pKi for CC(C(=O)NO)N(Cc1ccc([N+](=O)[O-])cc1)S(=O)(=O)c1cccc(C(=O)O)c1 (centres undefined) ?
5.05

###

# Lookup of reported Ki keyed by entry
TEST METHOD NOTES: Inhibition of Clostridium histolyticum collagenase using a linear regression program
Give the value in µM but do not write µM after it.

Below, each entry is followed by its recorded Ki result.
So what does the record say about Ki for CC(C(=O)NO)N(Cc1ccc([N+](=O)[O-])cc1)C(=O)NS(=O)(=O)c1ccc(Cl)cc1 (centres undefined) ?
7

So what does the record say about Ki for CC(C(=O)NO)N(Cc1ccc([N+](=O)[O-])cc1)S(=O)(=O)c1cccc([N+](=O)[O-])c1 (centres undefined) ?
12

So what does the record say about Ki for CC(C(=O)NO)N(Cc1ccc([N+](=O)[O-])cc1)S(=O)(=O)c1cccs1 (centres undefined) ?
11

// switching to the query compound
So what does the record say about Ki for COc1ccc(S(=O)(=O)N(Cc2ccc([N+](=O)[O-])cc2)C(C)C(=O)NO)cc1NC(=O)OC(C)(C)C (centres undefined) ?
8

###

TEST METHOD NOTES: Inhibition of Clostridium histolyticum collagenase using a linear regression program
# Lookup of reported log10 Ki keyed by entry
Scale: log10; quantity: Ki; unit before log: µM

Below, each entry is followed by its recorded log10 Ki result.
So what does the record say about log10 Ki for COc1ccc(S(=O)(=O)N(Cc2ccc([N+](=O)[O-])cc2)C(C)C(=O)O)cc1 (centres undefined) ?
0.72

So what does the record say about log10 Ki for CC(C(=O)O)N(Cc1ccc([N+](=O)[O-])cc1)C(=O)Nc1cccc(Cl)c1 (centres undefined) ?
0.79

So what does the record say about log10 Ki for CC(=O)c1ccc(S(=O)(=O)N(Cc2ccc([N+](=O)[O-])cc2)C(C)C(=O)NO)cc1 (centres undefined) ?
0.95

More entries:
So what does the record say about log10 Ki for CC(C(=O)NO)N(Cc1ccc([N+](=O)[O-])cc1)Sc1ccc([N+](=O)[O-])cc1 (centres undefined) ?
1.04

So what does the record say about log10 Ki for Cc1cc(C)c(S(=O)(=O)N(Cc2ccc([N+](=O)[O-])cc2)C(C)C(=O)NO)c(C)c1 (centres undefined) ?
1.23

So what does the record say about log10 Ki for CC(C(=O)NO)N(Cc1ccc([N+](=O)[O-])cc1)S(=O)(=O)C(F)(F)C(F)(F)C(F)(F)C(F)(F)F (centres undefined) ?
1.04

So what does the record say about log10 Ki for Cc1ccccc1S(=O)(=O)NC(=O)N(Cc1ccc([N+](=O)[O-])cc1)C(C)C(=O)NO (centres undefined) ?
0.90

So what does the record say about log10 Ki for CC(C(=O)O)N(Cc1ccc([N+](=O)[O-])cc1)S(=O)(=O)C(F)(F)F (centres undefined) ?
0.67

So what does the record say about log10 Ki for CC(C(=O)NO)N(Cc1ccc([N+](=O)[O-])cc1)S(=O)(=O)Cc1ccccc1 (centres undefined) ?
1.70

###

TEST METHOD NOTES: Inhibition of Clostridium histolyticum collagenase using a linear regression program
RESULT TYPE: pKi
Quick note: pKi values are minus log10 of concentrations in mol/L.

So what does the record say about pKi for CC(C(=O)NO)N(Cc1ccc([N+](=O)[O-])cc1)C(=S)NC(=O)c1ccccc1 (centres undefined) ?
5.22

So what does the record say about pKi for CC(C(=O)O)N(Cc1ccc([N+](=O)[O-])cc1)C(=O)Nc1ccc(Cl)c(Cl)c1 (centres undefined) ?
5.30

So what does the record say about pKi for CC(C(=O)O)N(Cc1ccc([N+](=O)[O-])cc1)S(=O)(=O)c1cccc2cccnc12 (centres undefined) ?
5.92

So what does the record say about pKi for CC(C(=O)NO)N(Cc1ccc([N+](=O)[O-])cc1)S(=O)(=O)c1cccc(NC(=O)OC(C)(C)C)c1 (centres undefined) ?
5.10

So what does the record say about pKi for CC(C(=O)O)N(Cc1ccc([N+](=O)[O-])cc1)S(=O)(=O)c1ccc2ccccc2c1 (centres undefined) ?
5.89

So what does the record say about pKi for CC(C(=O)NO)N(Cc1ccc([N+](=O)[O-])cc1)S(=O)(=O)c1cccc2ccccc12 (centres undefined) ?
5.15

So what does the record say about pKi for CC(C(=O)O)N(Cc1ccc([N+](=O)[O-])cc1)S(=O)(=O)c1cccs1 (centres undefined) ?
5.68

So what does the record say about pKi for CC(C(=O)NO)N(Cc1ccc([N+](=O)[O-])cc1)S(=O)(=O)c1cc(Cl)cc(Cl)c1O (centres undefined) ?
4.92

So what does the record say about pKi for CC(C(=O)O)N(Cc1ccc([N+](=O)[O-])cc1)S(=O)(=O)N(C)C (centres undefined) ?
4.44

###

TEST METHOD NOTES: Inhibition of Clostridium histolyticum collagenase using a linear regression program
pKi: −log10 of the molar value.
Note to self: values exactly at 5 are MET. So pKi at or above 5 is MET, below is NOT MET.

For this compound, is measured pKi 5 or higher? CC(C(=O)NO)N(Cc1ccc([N+](=O)[O-])cc1)C(=O)Nc1ccc(Cl)cc1 (centres undefined)
NOT MET

For this compound, is measured pKi 5 or higher? CC(C(=O)O)N(Cc1ccc([N+](=O)[O-])cc1)S(=O)(=O)c1ccc([N+](=O)[O-])cc1 (centres undefined)
MET

###

TEST METHOD NOTES: Inhibition of Clostridium histolyticum collagenase using a linear regression program
RESULT TYPE: log10(Ki) (log10 of the value in µM)
Scale: log10; quantity: Ki; unit before log: µM

Below, each entry is followed by its recorded log10(Ki) result.
So what does the record say about log10(Ki) for CC(C(=O)O)N(Cc1ccc([N+](=O)[O-])cc1)S(=O)(=O)c1ccc(Br)cc1 (centres undefined) ?
1.00

So what does the record say about log10(Ki) for CC(C(=O)O)N(Cc1ccc([N+](=O)[O-])cc1)S(=O)(=O)C(Cl)(Cl)Cl (centres undefined) ?
0.71

So what does the record say about log10(Ki) for CC(C(=O)NO)N(Cc1ccc([N+](=O)[O-])cc1)S(=O)(=O)c1ccccc1[N+](=O)[O-] (centres undefined) ?
1.11

So what does the record say about log10(Ki) for Cc1cc(C)c(S(=O)(=O)N(Cc2ccc([N+](=O)[O-])cc2)C(C)C(=O)O)c(C)c1 (centres undefined) ?
0.78

So what does the record say about log10(Ki) for CC(C(=O)NO)N(Cc1ccc([N+](=O)[O-])cc1)S(=O)(=O)c1cccc2c(N(C)C)cccc12 (centres undefined) ?
0.85

More entries:
So what does the record say about log10(Ki) for CC(C(=O)O)N(Cc1ccc([N+](=O)[O-])cc1)S(C)(=O)=O (centres undefined) ?
1.26

So what does the record say about log10(Ki) for CC(C(=O)NO)N(Cc1ccc([N+](=O)[O-])cc1)S(C)(=O)=O (centres undefined) ?
1.88

So what does the record say about log10(Ki) for CC(C(=O)NO)N(Cc1ccc([N+](=O)[O-])cc1)S(=O)(=O)c1ccc(Br)cc1 (centres undefined) ?
1.48

So what does the record say about log10(Ki) for Cc1ccc(S(=O)(=O)N(Cc2ccc([N+](=O)[O-])cc2)C(C)C(=O)NO)cc1 (centres undefined) ?
1.56
